Target: Thymidylate synthase (Bos taurus)
Assay: Competitive inhibition of purified calf thymus thymidylate synthetase using 5-[3H]-2'-deoxyuridine 5'-phosphate as substrate after 7 mins by double reciprocal plot method

- molecule: "O=c1ccn([C@H]2C[C@H](O)[C@@H](COP(=O)(O)O)O2)c(=O)[nH]1 [DEOXYURIDINE MONOPHOSPHATE]"
  measured-target: "Thymidylate synthase (Bos taurus)"
  unit-name: "µM"
  Ki: 8
- molecule: "CN(C)CCNCc1cn([C@H]2C[C@H](O)[C@@H](COP(=O)(O)O)O2)c(=O)[nH]c1=O"
  measured-target: "Thymidylate synthase (Bos taurus)"
  unit-name: "µM"
  Ki: 3.1
- molecule: "CN(C)Cc1cn([C@H]2C[C@H](O)[C@@H](COP(=O)(O)O)O2)c(=O)[nH]c1=O"
  measured-target: "Thymidylate synthase (Bos taurus)"
  unit-name: "µM"
  Ki: 110

---

Molecular target: Thymidylate synthase (Bos taurus, UniProt Q2TA32)
Sequence (Q2TA32 whole entry): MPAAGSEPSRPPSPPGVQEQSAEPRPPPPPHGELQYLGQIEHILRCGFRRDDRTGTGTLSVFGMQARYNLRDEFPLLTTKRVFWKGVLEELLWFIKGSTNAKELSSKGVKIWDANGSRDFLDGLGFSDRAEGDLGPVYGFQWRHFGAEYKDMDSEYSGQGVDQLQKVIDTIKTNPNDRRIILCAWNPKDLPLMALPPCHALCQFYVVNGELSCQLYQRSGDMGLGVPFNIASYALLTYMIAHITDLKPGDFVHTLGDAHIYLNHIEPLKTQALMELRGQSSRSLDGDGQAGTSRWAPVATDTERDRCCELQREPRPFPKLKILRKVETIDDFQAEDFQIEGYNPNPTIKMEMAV
Assay: Noncompetitive inhibition of purified calf thymus thymidylate synthetase using 5-[3H]-2'-deoxyuridine 5'-phosphate as substrate after 7 mins by double reciprocal plot method
pKi: −log10 of the molar value.
observation-type: pKi

- smiles-text: "O=c1[nH]c(=O)n([C@H]2C[C@H](O)[C@@H](COP(=O)(O)O)O2)cc1CN1CCCC1"
  measured-number: 4.37

---

Values of Ki reported for Thymidylate synthase (Mus musculus, UniProt P07607) appear below.
observation-type: Ki (µM)

- compound: "CN(C)Cc1cn([C@H]2C[C@H](O)[C@@H](COP(=O)(O)O)O2)c(=O)[nH]c1=O"
  measured-target: "Thymidylate synthase (Mus musculus, UniProt P07607)"
  measured-number: 73
- compound: "O=c1ccn([C@H]2C[C@H](O)[C@@H](COP(=O)(O)O)O2)c(=O)[nH]1 [DEOXYURIDINE MONOPHOSPHATE]"
  measured-target: "Thymidylate synthase (Mus musculus, UniProt P07607)"
  measured-number: 6.5
- compound: "O=c1[nH]c(=O)n([C@H]2C[C@H](O)[C@@H](COP(=O)(O)O)O2)cc1CN1CCCC1"
  measured-target: "Thymidylate synthase (Mus musculus, UniProt P07607)"
  measured-number: 27
